Tested on: DDR1
Conditions: concentration: 1 μM, replicates: in singlicate; n = 1;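 further: KINOMEscan kinase panel screen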
measured.metric: %Inh (%)
// note: answer is a bare numeric in %

>  <molecule>
CN(C)c1cc(-c2ccc3c(N)n[nH]c3c2)nc(N)n1

>  <measured.metric>
%Inh

>  <value>
0

$$$$
>  <molecule>
COc1cccc(C2=C(Nc3cccc(C(=O)O)c3)C(=O)NC2=O)c1

>  <measured.metric>
%Inh

>  <value>
0

$$$$
>  <molecule>
Cc1c(Cn2c(C)nn3c(=O)cc(N4CCO[C@H](C)C4)nc23)cccc1C(F)(F)F

>  <measured.metric>
%Inh

>  <value>
15

$$$$
>  <molecule>
Cc1nn2c(=O)cc(N3CCOCC3)nc2n1Cc1cccc(Cl)c1Cl

>  <measured.metric>
%Inh

>  <value>
25

$$$$
>  <molecule>
Nc1ncnc2c1ncn2-c1cccc2ccccc12

>  <measured.metric>
%Inh

>  <value>
0

$$$$

Okay, next one:
Challenge: What reported %Inh corresponds to O=C(NCCNc1ccnc(Nc2ccc(F)cc2)n1)Nc1ccc2c(c1)OCO2 on DDR1?
Response given: 0

* * *

Tested on: PDGFRB
Details: concentration: 1 μM, replicates: in singlicate; n = 1
Assign labels as follows, please: TRUE for %Inh below 50%; FALSE for %Inh equal to or exceeding 50%.

Examples from the recorded data:
>  <compound>
CCc1ccc(-c2ccc3c(c2)-c2nn(C)cc2S(=O)(=O)N3C)cc1

>  <system>
PDGFRB

>  <category.label>
TRUE

$$$$
>  <compound>
CCn1c(-c2ccoc2)nc2cnccc21 [SB-733887]

>  <system>
PDGFRB

>  <category.label>
TRUE

$$$$
>  <compound>
Cc1nn2c(=O)cc(N3CCOCC3)nc2n1Cc1cccc(Cl)c1Cl [GSK2342769]

>  <system>
PDGFRB

>  <category.label>
TRUE

$$$$

Challenge: Confirm or reject: %Inh of COC(=O)c1c(-c2ccccc2)c2cc(Br)ccc2c(=O)n1Cc1ccc(S(C)(=O)=O)cc1 lies strictly below 50%
Response given: FALSE

Challenge: Query CCCNC(=O)Nc1ccc(Oc2ncnc3ccn(C)c23)cc1 next
Response given: TRUE

Challenge: Query O=C(Nc1n[nH]c2nc(-c3ccccc3)c(Br)cc12)C1CC1 [SB-708998] next
Response given: FALSE

Challenge: Query O=C(Nc1n[nH]c2cc(-c3ccccc3F)ccc12)C1CC1 [SB-733371] next
Response given: TRUE

Challenge: Query O=C(NCc1cccs1)c1cc(C(=O)c2c(Cl)cccc2Cl)c[nH]1 [GW823670] next
Response given: TRUE

Challenge: Query COc1cccc(C2=C(Nc3cccc(C(=O)O)c3)C(=O)NC2=O)c1 [SB-390770] next
Response given: TRUE

Challenge: Query O=C(Nc1ccc2c(c1)OCO2)NC1CCN(c2ccnc(NCc3ccc(F)cc3)n2)CC1 [GSK1379859] next
Response given: TRUE

* * *

Each entry below carries its reported %Inh.
System: PHKG1
Settings: concentration: 1 μM, replicates: in singlicate; n = 1
// note: answer is a bare numeric in %

Completed entries (count: 6):
>  <compound.structure>
CCn1c(-c2nonc2N)nc2ccccc21

>  <system>
PHKG1

>  <%Inh [%]>
21

$$$$
>  <compound.structure>
CCC(=O)c1c(-c2ccccc2)c2cc(Cl)ccc2c(=O)n1Cc1ccc(C(=O)O)cc1

>  <system>
PHKG1

>  <%Inh [%]>
0

$$$$
>  <compound.structure>
Fc1cccc(CSc2nnc(-c3ccc4c(c3)CCO4)o2)c1

>  <system>
PHKG1

>  <%Inh [%]>
1

$$$$
>  <compound.structure>
CN1C(=O)C(Nc2ccccc2)=C(c2ccccc2)C1=O

>  <system>
PHKG1

>  <%Inh [%]>
11

$$$$
>  <compound.structure>
CN1C(=O)C(Nc2cc(Cl)c(O)c(Cl)c2)=C(c2ccc(Cl)cc2)C1=O

>  <system>
PHKG1

>  <%Inh [%]>
0

$$$$
>  <compound.structure>
Cc1nnc(-c2ccc(C)c(-c3ccc(C(=O)O)cc3)c2)o1

>  <system>
PHKG1

>  <%Inh [%]>
2

$$$$

Challenge: What reported %Inh corresponds to O=C(NCc1cccs1)c1cc(C(=O)c2c(Cl)cccc2Cl)c[nH]1 on PHKG1?
Response given: 2

Challenge: Query Nc1ncnc2c1ncn2-c1cccc2ccccc12 next
Response given: 0

Challenge: Query O=c1cc(N2CCOCC2)nc2n(Cc3ccc(F)c(Cl)c3)ccn12 next
Response given: 0

Challenge: Query O=C1NC(=O)C(c2ccccc2)=C1Nc1cccc(O)c1 next
Response given: 0
